meta.source: patent US12258354B2

Target: hAhR (Homo sapiens, UniProt P35869)
Construct: Stably integrated DRE-luciferase cell lines were generated by transducing the both cell lines with Cignal XRE luciferase reporter; endogenous in cells; host or cells: HEPG2 DRE-Luc cells (only the XRE luciferase reporter was transduced)
Experiment: DRE-luciferase transcriptional reporter assay in HEPG2 DRE-Luc cells, TCDD-induced (antagonist mode)
Format: cell-based
Conditions: relative IC50, 3 nM TCDD, 24-hour incubation, firefly luciferase readout
quantity_kind: IC50

compound | IC50
Cc1cc(-c2ncc3cc(C(F)(F)F)ccc3n2)ccc1N1CCOc2nn(C)nc2C1=O | 1 to 10 µM
Cc1cc(-c2ncc3nc(C(F)(F)F)ccc3n2)ccc1N1CCn2ncc(C)c2C1=O | < 0.2 µM
Cc1cc(-c2ncc3cc(C(F)(F)F)ccc3n2)ccc1N1CCn2nc(COP(=O)(O)O)c(C)c2C1=O | < 0.2 µM
Cc1cc(-c2ncc3cc(C(F)(F)F)ccc3n2)ccc1N1CCn2nc(CN3CCO[C@H](C)C3)c(C)c2C1=O | < 0.2 µM
Cc1cc(-c2ncc3cc(C(F)(F)F)ccc3n2)ccc1N1Cc2cnn(C)c2C1=O | < 0.2 µM
Cc1cc(-c2ncc3cc(C(F)(F)F)ccc3n2)ccc1N1CCn2nc(CN3CCOC(C)C3)c(C)c2C1=O (centres unmarked) | < 0.2 µM
Cc1cc(-c2ccc3nc(C(F)(F)F)ccc3n2)ccc1N1CCOc2cn(C)nc2C1=O | < 0.2 µM

Query: Field: IC50 (hAhR (Homo sapiens, UniProt P35869)). Entry: Cc1cc(-c2ncc3nc(C(F)(F)F)ccc3n2)ccc1N1CCOc2nn(C)nc2C1=O
Result: 0.2 to 0.5 µM

====

Target: hAhR (Homo sapiens)
Construct: Stably integrated DRE-luciferase cell lines were generated by transducing the both cell lines with Cignal XRE luciferase reporter; endogenous in cells
Sequence (P35869 11-848): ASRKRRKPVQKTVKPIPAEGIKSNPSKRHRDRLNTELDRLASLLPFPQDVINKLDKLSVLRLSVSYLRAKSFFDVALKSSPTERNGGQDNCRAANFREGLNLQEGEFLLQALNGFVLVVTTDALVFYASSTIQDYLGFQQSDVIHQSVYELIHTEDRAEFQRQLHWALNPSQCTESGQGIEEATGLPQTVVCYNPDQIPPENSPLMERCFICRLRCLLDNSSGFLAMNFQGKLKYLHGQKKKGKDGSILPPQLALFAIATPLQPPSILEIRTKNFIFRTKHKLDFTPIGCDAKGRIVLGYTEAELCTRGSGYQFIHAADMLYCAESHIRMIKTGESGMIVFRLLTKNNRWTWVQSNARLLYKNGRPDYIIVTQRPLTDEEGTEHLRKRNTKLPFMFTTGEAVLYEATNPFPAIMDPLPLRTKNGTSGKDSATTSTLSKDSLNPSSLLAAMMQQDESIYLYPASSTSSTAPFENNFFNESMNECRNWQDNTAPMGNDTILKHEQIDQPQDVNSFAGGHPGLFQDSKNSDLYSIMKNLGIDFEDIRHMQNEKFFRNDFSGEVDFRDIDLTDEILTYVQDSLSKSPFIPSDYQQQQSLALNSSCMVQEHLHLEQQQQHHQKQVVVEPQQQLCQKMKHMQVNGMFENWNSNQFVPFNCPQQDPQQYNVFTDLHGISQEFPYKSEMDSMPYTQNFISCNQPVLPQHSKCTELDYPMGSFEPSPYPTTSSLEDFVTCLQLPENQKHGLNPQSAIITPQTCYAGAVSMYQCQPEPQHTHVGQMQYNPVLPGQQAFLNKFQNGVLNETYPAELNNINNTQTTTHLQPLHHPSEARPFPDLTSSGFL
Assay: DRE-luciferase transcriptional reporter assay in HEPG2 DRE-Luc cells, TCDD-induced (antagonist mode)
Conditions: relative IC50, 3 nM TCDD, 24-hour incubation, firefly luciferase readout
quantity_kind: IC50

Look over these answered cases.
molecule | result
Cc1cc(-c2ncc3cc(C(F)(F)F)ccc3n2)ccc1N1CCOc2cn(CCO)nc2C1=O | < 200 nM
Cc1cc(-c2ncc3nc(C(F)(F)F)ccc3n2)ccc1N1CCOc2c(CN(C)C)nn(C)c2C1=O | < 200 nM
Cc1cc(-c2ncc3cc(C(F)(F)F)ccc3n2)ccc1N1CCn2nc(C(=O)N[C@H](C)CO)c(C)c2C1=O | < 200 nM
Cc1cc(-c2ccc3nc(C(F)(F)F)ccc3n2)ccc1N1CCc2cnn(C)c2C1=O | < 200 nM
Cc1cc(-c2ncc3nc(C(F)(F)F)ccc3n2)ccc1N1CCOc2c(C(C)O)nn(C)c2C1=O (stereo not drawn) | < 200 nM
Cc1cc(-c2ncc3cc(C(F)(F)F)ccc3n2)ccc1N1CC(CO)n2ncc(C)c2C1=O (stereo not drawn) | < 200 nM
Cc1cc(-c2ncc3nc(C(F)(F)F)ccc3n2)ccc1N1CCOc2nn[nH]c2C1=O | 1000 to 10000 nM
Cc1cc(-c2ccc3nc(F)ccc3n2)ccc1N1CCOc2cnn(C)c2C1=O | 500 to 1000 nM
Cc1cc(-c2ncc3nc(C(F)(F)F)ccc3n2)ccc1N1CCOc2c(CO)nn(C)c2C1=O | < 200 nM
Cc1cc(-c2ncc3cc(C(F)(F)F)ccc3n2)ccc1N1CCOc2cn(CC(=O)O)nc2C1=O | 1000 to 10000 nM

Need IC50 for each of these molecules.
1. Cc1cc(-c2ccc3nc(C(F)(F)F)ccc3n2)ccc1N1CCn2nc(CN3CCOCC3)c(C)c2C1=O
2. Cc1cc(-c2ncc3cc(C(F)(F)F)ccc3n2)ccc1N1CCOc2cnn(CCN3CCC(O)CC3)c2C1=O
3. Cc1cc(-c2ncc3nc(C(F)(F)F)ccc3n2)ccc1N1CCOc2cnn(C)c2C1=O
4. Cc1cc(-c2ncc3cc(C(F)(F)F)ccc3n2)ccc1N1CCn2ncc(CN3CCOCC3)c2C1=O
5. Cc1cc(-c2ncc3cc(C(F)(F)F)ccc3n2)ccc1N1CCn2nc(CN3CCN(C)CC3)c(C)c2C1=O

Result:
< 200 nM
1000 to 10000 nM
< 200 nM
< 200 nM
< 200 nM

====

Target: hAhR (Homo sapiens)
Construct: Stably integrated DRE-luciferase cell lines were generated by transducing the both cell lines with Cignal XRE luciferase reporter; endogenous in cells
Sequence (P35869 11-848): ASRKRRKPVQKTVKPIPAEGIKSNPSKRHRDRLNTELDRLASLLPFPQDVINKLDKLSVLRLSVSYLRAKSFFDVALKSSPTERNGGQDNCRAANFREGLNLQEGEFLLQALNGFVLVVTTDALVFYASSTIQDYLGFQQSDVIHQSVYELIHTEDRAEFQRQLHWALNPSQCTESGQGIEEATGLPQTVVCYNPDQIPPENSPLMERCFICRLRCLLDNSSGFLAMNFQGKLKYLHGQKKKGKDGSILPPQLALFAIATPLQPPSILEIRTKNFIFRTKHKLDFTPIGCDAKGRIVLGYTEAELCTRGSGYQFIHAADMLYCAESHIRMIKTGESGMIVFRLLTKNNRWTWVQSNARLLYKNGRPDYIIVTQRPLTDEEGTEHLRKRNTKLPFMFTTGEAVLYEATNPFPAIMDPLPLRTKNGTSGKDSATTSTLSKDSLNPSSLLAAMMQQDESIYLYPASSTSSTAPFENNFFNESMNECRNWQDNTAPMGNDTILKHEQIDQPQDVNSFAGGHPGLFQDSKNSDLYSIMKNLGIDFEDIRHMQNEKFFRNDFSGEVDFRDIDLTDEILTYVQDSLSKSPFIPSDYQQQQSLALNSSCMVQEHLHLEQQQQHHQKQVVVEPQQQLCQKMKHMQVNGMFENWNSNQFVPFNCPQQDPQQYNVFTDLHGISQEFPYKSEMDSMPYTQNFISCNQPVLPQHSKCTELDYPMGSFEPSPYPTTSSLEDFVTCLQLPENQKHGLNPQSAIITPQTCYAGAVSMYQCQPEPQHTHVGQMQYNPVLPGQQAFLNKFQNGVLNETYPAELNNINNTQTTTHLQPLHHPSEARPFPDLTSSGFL
Experiment: DRE-luciferase transcriptional reporter assay in HEPG2 DRE-Luc cells, TCDD-induced (antagonist mode)
Details: relative IC50, 3 nM TCDD, 24-hour incubation, firefly luciferase readout
I'd appreciate it if you could supply IC50 values for the items below.

Some compounds with known IC50 results, for comparison:
compound | result
Cc1cc(-c2ncc3cc(C(F)(F)F)ccc3n2)ccc1N1CC(COCc2ccccc2)n2ncc(C)c2C1=O (stereo not drawn) [compound 090] | < 200 nM
Cc1cc(-c2ncc3cc(C(F)(F)F)ccc3n2)ccc1N1CCOc2cncnc2C1=O [compound 055] | 200 to 500 nM
Cc1cc(-c2ncc3cc(C(F)(F)F)ccc3n2)ccc1N1CCOc2cn(CC#N)nc2C1=O [compound 035] | < 200 nM
Cc1cc(N2CCc3cnn(C)c3C2=O)c(C)cc1-c1ccc2nc(C(F)(F)F)ccc2n1 [compound 010] | 1000 to 10000 nM
Cc1cc(-c2ncc3cc(C(F)(F)F)ccc3n2)ccc1N1CCn2nc(CN3CCOCC3)c(C)c2C1=O [compound 061] | < 200 nM

State the recorded IC50 for every item in the following list.
1. CCOC(=O)c1nn2c(c1C)C(=O)N(c1ccc(-c3ncc4cc(C(F)(F)F)ccc4n3)cc1C)CC2 [compound 056]
2. Cc1cc(-c2ncc3nc(C(F)(F)F)ccc3n2)ccc1N1CCc2cnn(C)c2C1=O [compound 004]

Result:
["< 200 nM", "< 200 nM"]

For every item in the list below, what is its measured IC50?
1. Cc1cc(-c2ncc3cc(C(F)(F)F)ccc3n2)ccc1N1CCn2nc(CN3CCS(=O)(=O)CC3)c(C)c2C1=O [Example 101]
2. Cc1cc(-c2ccc3cc(C(F)(F)F)ccc3n2)ccc1N1CCn2ncc(C)c2C1=O [compound 008]
3. Cc1cc(-c2ncc3cc(C(F)(F)F)ccc3n2)ccc1N1CCn2nc(CN3CCC4(COC4)C3)c(C)c2C1=O [Example 111]

Result:
1. < 200 nM
2. < 200 nM
3. < 200 nM

Consider the following items and state reported IC50 for each.
1. Cc1cc(-c2ncc3nc(C(F)(F)F)ccc3n2)ccc1N1C(=O)c2[nH]ncc2OCC1C (stereo not drawn) [compound 046]
2. Cc1cc(-c2ncc3cc(C(F)(F)F)ccc3n2)ccc1N1CCOc2cccnc2C1=O [compound 054]

Result:
1: < 200 nM; 2: 200 to 500 nM

Hey, quick one: what's IC50 for each of these?
1. Cc1cc(-c2ncc3cc(C(F)(F)F)ccc3n2)ccc1N1CCn2nc(CN3CCC(O)CC3)c(C)c2C1=O [Example 100]
2. Cc1cc(-c2ccc3nc(C(F)(F)F)cc(C)c3n2)ccc1N1CCc2cnn(C)c2C1=O [compound 028]
3. Cc1cc(-c2ncc3nc(C(F)(F)F)ccc3n2)ccc1N1CCOc2c(C(C)(C)O)nn(C)c2C1=O [compound 084]

Result:
1. < 200 nM
2. < 200 nM
3. < 200 nM
